Could you please report measured Binding Level sample 2 (RU) for the items listed next?
- measured-target: T1, recombinant human OX40L (extracellular domain, R&D Systems) (human, UniProt P23510 51-183)
- T1 construct: also called hOX40L; rec. hOX40L
- T1 sequence: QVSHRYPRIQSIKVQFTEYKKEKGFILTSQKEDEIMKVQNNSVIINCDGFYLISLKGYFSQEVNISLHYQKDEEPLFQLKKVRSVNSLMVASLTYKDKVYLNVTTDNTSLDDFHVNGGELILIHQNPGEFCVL
- assay-remarks: SPR, second injection after competitor OX40L19D08
Write the answer as a number in RU, unit excluded.

Sample OX40L19D08 (VHH, monovalent Nanobody from E. coli; not shown: C-terminal c-myc and His6 tag) VHH: EVQLVESGGGLVQAGASLRLSCAASGRRFISNYAMGWFRQAPGQERAFVAAISRSGSITYYTDSVKGRFSISRDYAKSTVYLQMDNLKPEDTAVYYCAADGGAVRDLTTNLPDYWGRGTQVTVSS — what was its Binding Level sample 2 (RU)?
236

How about this binder: OX40L01E07 (VHH, monovalent Nanobody from E. coli; not shown: C-terminal c-myc and His6 tag) VHH: EVQLVESGGGLVQAGGSLRLSCAASGRTFSSIYAKGWFRQAPGKEREFVAAISRSGRSTSYADSVKGRFTISRDNAKNTVYLQMNSLKPEDTAVYYCAAVGGATTVTASEWDYWGLGTQVTVSS
252

The origin of these recorded values is patent US20150218281A1.
